# Tested on: WI-38
# assay-info: Cytotoxicity against human WI-38 cells assessed as reduction in cell viability by MTT assay
# Type: cell-based
# stated-conditions: human, wi-38
# log10(EC100) annotations
measured-parameter: log10(EC100) (log10 of the value in nM)

molecule="O=C(Nc1ccc([N+](=O)[O-])cc1)C(c1ccccc1[N+](=O)[O-])N(C(=O)C(F)(F)F)c1ccccc1 (stereo not given)" measured=2.05
molecule="O=C(Nc1ccc([N+](=O)[O-])cc1)C(c1ccccc1)N(C(=O)c1ccc(C(F)(F)F)cc1)c1ccccc1 (stereo not given)" measured=1.43
molecule="O=C(Nc1ccc([N+](=O)[O-])cc1)C(c1ccccc1)N(Cc1ccccc1)C(=O)Cc1ccccc1 (stereo not given)" measured=1.97
molecule="Cc1ccc(N(C(=O)c2ccc(Br)cc2)C(C(=O)Nc2ccc([N+](=O)[O-])cc2)c2ccccc2)cc1 (stereo not given)" measured=1.56
molecule="Cc1ccc(N(C(=O)c2ccc(C(F)(F)F)cc2)C(C(=O)Nc2ccc([N+](=O)[O-])cc2)c2ccccc2)cc1 (stereo not given)" measured=1.17
molecule="O=C(Nc1ccc([N+](=O)[O-])cc1)C(c1ccc(Br)cc1)N(C(=O)c1ccccc1[N+](=O)[O-])c1ccccc1 (stereo not given)" measured=1.10
molecule="O=C(Nc1ccc([N+](=O)[O-])cc1)C(c1ccccc1)N(C(=O)C(F)(F)F)c1ccccc1 (stereo not given)" measured=2.73
molecule="O=C(Nc1ccc([N+](=O)[O-])cc1)C(c1ccc([N+](=O)[O-])cc1)N(C(=O)c1ccc(C(F)(F)F)cc1)c1ccccc1 (stereo not given)" measured=2.03
molecule="O=C(Nc1ccc([N+](=O)[O-])cc1)C(c1ccccc1)N(C(=O)c1ccccc1[N+](=O)[O-])c1ccccc1 (stereo not given)" measured=2.11
molecule="O=CN(c1ccccc1)C(C(=O)Nc1ccc([N+](=O)[O-])cc1)c1ccccc1 (stereo not given)" measured=2.21
molecule="O=C(Nc1ccc([N+](=O)[O-])cc1)C(c1ccccc1)N(C(=O)CCC(=O)N(c1ccccc1)C(C(=O)Nc1ccc([N+](=O)[O-])cc1)c1ccccc1)c1ccccc1 (stereo not given)" measured=2.15
molecule=COc1cccc2c1C(=O)c1c(O)c3c(c(O)c1C2=O)C[C@@](O)(C(=O)CO)C[C@@H]3O[C@H]1C[C@H](N)[C@H](O)[C@H](C)O1 measured=1.08
molecule="O=C(Nc1ccc([N+](=O)[O-])cc1)C(c1ccccc1)N(C(=O)c1ccccc1I)c1ccccc1 (stereo not given)" measured=1.01
molecule="O=C(Nc1ccc([N+](=O)[O-])cc1)C(c1ccccc1[N+](=O)[O-])N(C(=O)c1ccccc1[N+](=O)[O-])c1ccccc1 (stereo not given)" measured=2.30
molecule="NCC(=O)N(c1ccccc1)C(C(=O)Nc1ccc([N+](=O)[O-])cc1)c1ccccc1 (stereo not given)" measured=1.93

// data source = ChEMBL document CHEMBL4680119
